meta.source: the Immune Epitope Database (IEDB)

# tested_target: HLA-B*48:01
# assay_summary: IEDB peptide-MHC binding, purified MHC/direct/fluorescence; filed as Kd, often an IC50 or EC50 that approximates it; bounds were set here for any values at or beyond the usual limits of such assays
# run_parameters: source organism: Yellow fever virus
pKd: −log10 of the molar value.
measured_parameter: pKd

1. KRVVASLMR; ≤ 4.70

---

# tested_target: HLA-B*58:01
# assay_summary: IEDB peptide-MHC binding, purified MHC/direct/fluorescence; filed as Kd, often an IC50 or EC50 that approximates it; bounds were set here for any values at or beyond the usual limits of such assays
# run_parameters: source organism: Influenza A virus (A/SW/MN/12883/00(H1N2))
measured_parameter: Kd

1. FPNEVGARI; ≥ 20 µM

---

# tested_target: HLA-A*24:02
# assay_summary: IEDB peptide-MHC binding, purified MHC/competitive/radioactivity; filed as Kd, often an IC50 or EC50 that approximates it; bounds were set here for any values at or beyond the usual limits of such assays
# run_parameters: source organism: Dengue virus 3 Martinique/1243/1999
Here the recorded Kd is given for each entry.
measured_parameter: Kd (nM)

1) TWAQNIPTAI; 681
2) DFAGKTVWF; 3030
3) AWMVHRQWFF; 4.7
4) YAQMWSLMYF; 247
5) WMAEIPLQW; 174

---

# tested_target: HLA-C*08:02
# assay_summary: IEDB peptide-MHC binding, purified MHC/direct/fluorescence; filed as Kd, often an IC50 or EC50 that approximates it; bounds were set here for any values at or beyond the usual limits of such assays
# run_parameters: source organism: Yersinia pestis Antiqua
pKd: −log10 of the molar value.
measured_parameter: pKd

1. FVADSTPLY; ≤ 4.70

---

# tested_target: HLA-A*26:01
# assay_summary: IEDB peptide-MHC binding, purified MHC/direct/fluorescence; filed as Kd, often an IC50 or EC50 that approximates it; bounds were set here for any values at or beyond the usual limits of such assays
# run_parameters: source organism: Campylobacter jejuni subsp. jejuni 81116
pKd: −log10 of the molar value.
measured_parameter: pKd

1. YTKKYLLSF; 8.70

---

# tested_target: HLA-A*31:01
# assay_summary: IEDB peptide-MHC binding, purified MHC/competitive/radioactivity; filed as Kd, often an IC50 or EC50 that approximates it; bounds were set here for any values at or beyond the usual limits of such assays
# run_parameters: source organism: SARS coronavirus Tor2
pKd: −log10 of the molar value.
Here the recorded pKd is given for each entry.
measured_parameter: pKd

1. AVVCYNSNY; 4.85
2. VLDMCAALK; 5.63
3. WVLAYMLFTK; 5.90
4. IISDMYDPR; 6.49
5. TQSRDLEDFK; 4.84
6. LLRALRLTK; 6.07
7. CLAVHECFVK; 5.12
8. VAFELWAKR; 7.11
9. KFYGPFVDR; 9.34
10. RAIMATIQR; 7.34
11. SLLKTHRMCK; 6.34
12. GVAPGTAVLR; 5.55
13. GFAAYNRYR; 6.09
14. SICSTMTNR; 8.97
15. KVAGFAKFLK; 7.50
16. AFSLDVSEK; 4.91
17. QLPQGTTLPK; 5.06
18. LILCFTIKR; 5.05
19. GALDTTSYR; 7.06
20. KQIRSAAKK; 5.97
21. KQMYKTPTLK; 7.02
